- target under test: T1, human protein C (human, UniProt P04070 43-461)
- T1 construct: Zymogen form, coated on ELISA plates; also called hPC; PC
- assay explanation: ELISA, plate coated with hPC 1 ug/mL, anti-hIgG-Fc-HRP
quantity measured: Span

The binder HAPC-14-9 (antibody, V domains shown, Whole IgG, backbone hIgG1; also called HPAC 14-9) VH: EVQLVESGGGLVQPGGSLRLSCAASGFTFSFYYLNWVRQAPGKGLEWVGDIRLKKNNYEKHYAESVKGRFTISRDDSKSITYLQMNSLRAEDTAVYYCAREGDTFDYWGQGTTVTVSS VL: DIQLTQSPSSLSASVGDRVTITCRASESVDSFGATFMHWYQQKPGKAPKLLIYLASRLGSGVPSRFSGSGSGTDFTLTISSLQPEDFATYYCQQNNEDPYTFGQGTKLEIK showed Span equal to 0.012

Record summary for Humanized antibody 14 (HAPC-14) (antibody, V domains shown, also called Humab001-14; NO; 14 antibody) VH: EVQLVESGGGLVQPGGSLRLSCAASGFTFSNYYLNWVRQAPGKGLEWVGDIRLKSNNYEKHYAESVKGRFTISRDDSKSITYLQMNSLRAEDTAVYYCAREGDYFDYWGQGTTVTVSS VL: DIQLTQSPSSLSASVGDRVTITCRASESVDSFGATFMHWYQQKPGKAPKLLIYLASNLESGVPSRFSGSGSGTDFTLTISSLQPEDFATYYCQQNNEDPYTFGQGTKLEIK : reported Span = ~0.0387

Recorded Span (binder HAPC-14-7 (antibody, V domains shown, Whole IgG, backbone hIgG1; also called HPAC 14-7) VH: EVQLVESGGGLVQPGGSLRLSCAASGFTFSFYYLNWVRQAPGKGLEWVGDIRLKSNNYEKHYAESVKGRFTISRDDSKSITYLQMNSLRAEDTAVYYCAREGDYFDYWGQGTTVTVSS VL: DIQLTQSPSSLSASVGDRVTITCRASESVDSFGATFMHWYQQKPGKAPKLLIYLASRLESGVPSRFSGSGSGTDFTLTISSLQPEDFATYYCQQNNEDPYTFGQGTKLEIK ): ~0.00661
